# Species on record: Homo sapiens
# ASSAY PROCEDURE: Selectivity factor, ratio of IC50 for human CYP11B1 to IC50 for human CYP11B2
REPORTED METRIC: Ratio IC50

(P) COc1cncc(-c2ccc3ccc(O)cc3c2Cl)c1
(Q) COc1ccc2ccc(-c3cccnc3)c(Cl)c2c1F
(Q) Given the listed items, does P or Q have the lesser reported Ratio IC50? Kindly state the label of the option you pick.
(A) P

====

# ASSAY TARGET: Cytochrome P450 3A4 (Homo sapiens, UniProt P08684)
# Sequence (P08684 whole entry): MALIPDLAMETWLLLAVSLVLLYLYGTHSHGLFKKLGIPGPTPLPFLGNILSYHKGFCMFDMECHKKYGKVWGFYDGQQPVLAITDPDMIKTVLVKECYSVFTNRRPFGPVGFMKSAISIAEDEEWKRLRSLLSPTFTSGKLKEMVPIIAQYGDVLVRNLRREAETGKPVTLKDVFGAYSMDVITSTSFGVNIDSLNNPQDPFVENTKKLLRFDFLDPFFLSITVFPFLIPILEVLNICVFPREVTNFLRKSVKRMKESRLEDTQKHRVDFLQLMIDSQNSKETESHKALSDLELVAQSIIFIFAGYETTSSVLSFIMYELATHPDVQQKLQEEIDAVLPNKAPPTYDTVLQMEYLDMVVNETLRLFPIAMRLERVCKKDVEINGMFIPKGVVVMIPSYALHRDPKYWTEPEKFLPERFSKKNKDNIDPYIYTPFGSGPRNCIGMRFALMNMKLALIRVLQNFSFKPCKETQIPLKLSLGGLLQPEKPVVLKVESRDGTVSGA
# ASSAY PROCEDURE: Inhibition of recombinant CYP3A4 (unknown origin) expressed in baculovirus-infected insect microsomes
REPORTED METRIC: IC50 (µM)

COc1ccc2ccc(-c3cccnc3)c(Cl)c2c1 :: 3.56
Oc1ccc2ccc(-c3cccnc3)c(Cl)c2c1 :: 1.76
Oc1ccc2ccc(-c3cccnc3)c(F)c2c1 :: 1.26
COc1cncc(-c2ccc3ccc(O)cc3c2Cl)c1 :: 4.2
COc1ccc2ccc(-c3cccnc3)c(Cl)c2c1F :: 1.01
Oc1ccc2ccc(-c3cncc4ccccc34)c(Cl)c2c1 :: 1.74

(a) COc1ccc2ccc(-c3cncc(O)c3)c(Cl)c2c1
(b) Oc1ccc2ccc(-c3cncnc3)c(Cl)c2c1
(Q) Compare a and b and name the one whose reported IC50 is smaller. Return value: the label identifying the chosen record.
(A) b
